system: T-47D breast; experiment: NCI tumour cell line growth inhibition, 48 h
measured.parameter: TGI

# count of solved cases: 3
- COc1cccc(/C=C/C(=O)c2cccc(Nc3nc(Nc4ccccc4)nc(Nc4ccccc4)n3)c2)c1: > 79.8 µM
- COc1cc(C2c3cc4c(cc3OC(NN=C(C)C)C2C)OCO4)cc(OC)c1O (stereo not given): > 100 µM
- N#Cc1nc(-c2cc([N+](=O)[O-])cc([N+](=O)[O-])c2)oc1N: > 10 µM

Ask | Reported TGI for `CCCN=Cc1cc(Cc2ccc(O)c(C=NCCC)c2)ccc1O` : what is it?
Reply | 6.33 µM

Ask | So what does the record say about TGI for `CCSC1=CC(=O)c2nc3ccccc3c3ccnc1c23` ?
Reply | 78.2 µM

Ask | I'd like to know its TGI. The compound in question is O=C(NC(Cc1c[nH]c2ccccc12)C(=O)O)/C(=C/c1ccccc1O)NC(=O)c1ccccc1 (stereo not given)
Reply | > 100 µM

====

Reported TGI values follow for various molecules
tested on: K-562 leukemia; test: NCI tumour cell line growth inhibition, 48 h

Illustrative cases are given below, each with its answer.
• O=C1/C(=C/c2ccccc2S)N=C(c2ccccc2)N1c1nc2ccc(Sc3ccccc3)cc2[nH]1 = > 100 µM
• CN(C)S(=O)(=O)c1ccc(NC(=O)COC(=O)c2ccc(S(=O)(=O)N3CCCCC3)cc2)cc1 = > 100 µM
• CCCCOC(C)(C)/C=C/C(O)[C@](C)(O)[C@H]1[C@H](O)C[C@@]2(C)[C@@H]3CCc4c(cc(OC5OC(CO)C(O)C(O)C5O)c(O)c4C)C3(C)C(=O)C[C@]12C (stereo not given in full) = > 100 µM
• CCCc1[nH]nc(CCC(=O)N(Cc2ccccc2)Cc2ccccc2)c1CC = > 100 µM
• Oc1ccc(-c2nnc3sc(-c4ccc(F)cc4)nn23)cc1 = > 100 µM
• Cc1ccc(/C=C2\CN(C(=O)OC(C)(C)C)C/C(=C\c3ccc(C)cc3)C2=O)cc1 = > 100 µM

In the following, a different molecule is considered.
Ask | Query for K-562 leukemia: what TGI does the record show for CSCCC(NCc1c(O)ccc2c(-c3ccccc3)cc(=O)oc12)C(=O)O (stereo not given) ?
Reply | > 100 µM

====

test system: MOLT-4 leukemia; experiment: NCI tumour cell line growth inhibition, 48 h; in the data active = GI50 below about 0.43 µM; inactive = the rest
Give one outcome, nothing more. List: true (active), false (inactive)

Take a look at these entries with their results.
* CN(C)S(=O)(=O)c1ccc(NC(=O)COC(=O)c2ccc(S(=O)(=O)N3CCCCC3)cc2)cc1 | false
* CC/C=C\C=C/C(=O)N/C=C/CC1Cc2cccc(O)c2C(=O)O1 (stereo not drawn) | false

Ask | Returns: the outcome recorded for `O=C1c2ccccc2-c2c1c1ccccc1c(=O)n2CCCNCCCNCCCn1c2c(c3ccccc3c1=O)C(=O)c1ccccc1-2` in this assay.
Reply | true

Ask | Outcome? `CCN(CC)c1ccc(C(=C2C=CC(=[N+](CC)Cc3cccc(S(=O)(=O)O)c3)C=C2)c2ccc(N(CC)Cc3cccc(S(=O)(=O)O)c3)cc2)cc1`
Reply | false

Ask | Record request — test call for `CNC(=O)n1ccc2cc(Oc3ccnc(NC(=O)c4ccc(C5CCN(CCO)CC5)cc4)c3)c(OCCOC)cc21`
Reply | false

Ask | What did the test return for `Cc1ccc2c(ccc3c[n+]4c5ccccc5ccc4n32)c1` ?
Reply | false

Ask | For `COc1ccc2nc3cc([N+](=O)[O-])ccc3c(NCCCCCN(C)C)c2c1` , which call appears in the assay record?
Reply | true

Ask | Can you look up the reported call for `COc1ccc2c(c1)O/C(=C\c1cccc(OCC(=O)Nc3nc4c(s3)CCCC4)c1)C2=O` for me?
Reply | false

These data points were gathered from PubChem BioAssay (NCI).
